Just for reference, BigSolDB 2.1 is where these values come from.

details: in 2-butanone, 288.15 K
Experimental readout: solubility (mole fraction)
In your answer, state the number alone without any accompanying words.

Dear colleague, please send me the reported solubility (mole fraction) for Cc1cnc(N)s1 when you can. 0.0535

* * *

details: in ethyl acetate, 290.65 K
Experimental readout: solubility (mole fraction)
In your answer, state the number alone without any accompanying words.

Dear colleague, please send me the reported solubility (mole fraction) for Cc1cnc(N)s1 when you can. 0.0791

* * *

conditions: in methanol, 280.65 K
Experimental readout: solubility (mole fraction)
In your answer, state the number alone without any accompanying words.

Dear colleague, please send me the reported solubility (mole fraction) for Cc1cnc(N)s1 when you can. 0.0639

* * *

conditions: in n-propanol, 295.65 K
Experimental readout: solubility (mole fraction)
In your answer, state the number alone without any accompanying words.

Dear colleague, please send me the reported solubility (mole fraction) for Cc1cnc(N)s1 when you can. 0.0686

* * *

conditions: in n-propanol, 283.15 K
Experimental readout: solubility (mole fraction)
In your answer, state the number alone without any accompanying words.

Dear colleague, please send me the reported solubility (mole fraction) for Cc1cnc(N)s1 when you can. 0.0441

* * *

conditions: in acetone, 313.15 K
Experimental readout: solubility (mole fraction)

Dear colleague, please send me the reported solubility (mole fraction) for Cc1cnc(N)s1 when you can. 0.163

* * *

conditions: in acetone, 308.15 K
Experimental readout: solubility (mole fraction)
In your answer, state the number alone without any accompanying words.

Dear colleague, please send me the reported solubility (mole fraction) for Cc1cnc(N)s1 when you can. 0.137

* * *

settings: in n-propanol, 300.65 K
Experimental readout: solubility (mole fraction)
In your answer, state the number alone without any accompanying words.

Dear colleague, please send me the reported solubility (mole fraction) for Cc1cnc(N)s1 when you can. 0.082

* * *

conditions: in 1,4-dioxane, 293.15 K
Experimental readout: solubility (mole fraction)
In your answer, state the number alone without any accompanying words.

Dear colleague, please send me the reported solubility (mole fraction) for Cc1cnc(N)s1 when you can. 0.0673

* * *

settings: in cyclohexane, 285.65 K
Experimental readout: solubility (mole fraction)
In your answer, state the number alone without any accompanying words.

Dear colleague, please send me the reported solubility (mole fraction) for Cc1cnc(N)s1 when you can. 0.000491

* * *

settings: in isopropanol, 290.65 K
Experimental readout: solubility (mole fraction)
In your answer, state the number alone without any accompanying words.

Dear colleague, please send me the reported solubility (mole fraction) for Cc1cnc(N)s1 when you can. 0.0546

* * *

details: in ethanol, 300.65 K
Experimental readout: solubility (mole fraction)
In your answer, state the number alone without any accompanying words.

Dear colleague, please send me the reported solubility (mole fraction) for Cc1cnc(N)s1 when you can. 0.103

* * *

conditions: in cyclohexane, 308.15 K
Experimental readout: solubility (mole fraction)
In your answer, state the number alone without any accompanying words.

Dear colleague, please send me the reported solubility (mole fraction) for Cc1cnc(N)s1 when you can. 0.00156

* * *

settings: in n-propanol, 280.65 K
Experimental readout: solubility (mole fraction)
In your answer, state the number alone without any accompanying words.

Dear colleague, please send me the reported solubility (mole fraction) for Cc1cnc(N)s1 when you can. 0.0404

* * *

conditions: in n-propanol, 310.65 K
Experimental readout: solubility (mole fraction)
In your answer, state the number alone without any accompanying words.

Dear colleague, please send me the reported solubility (mole fraction) for Cc1cnc(N)s1 when you can. 0.117

* * *

conditions: in n-propanol, 308.15 K
Experimental readout: solubility (mole fraction)
In your answer, state the number alone without any accompanying words.

Dear colleague, please send me the reported solubility (mole fraction) for Cc1cnc(N)s1 when you can. 0.107

* * *

conditions: in ethyl acetate, 305.65 K
Experimental readout: solubility (mole fraction)
In your answer, state the number alone without any accompanying words.

Dear colleague, please send me the reported solubility (mole fraction) for Cc1cnc(N)s1 when you can. 0.129

* * *

details: in acetonitrile, 295.65 K
Experimental readout: solubility (mole fraction)
In your answer, state the number alone without any accompanying words.

Dear colleague, please send me the reported solubility (mole fraction) for Cc1cnc(N)s1 when you can. 0.0536

* * *

details: in cyclohexane, 310.65 K
Experimental readout: solubility (mole fraction)
In your answer, state the number alone without any accompanying words.

Dear colleague, please send me the reported solubility (mole fraction) for Cc1cnc(N)s1 when you can. 0.00173

* * *

details: in n-propanol, 303.15 K
Experimental readout: solubility (mole fraction)
In your answer, state the number alone without any accompanying words.

Dear colleague, please send me the reported solubility (mole fraction) for Cc1cnc(N)s1 when you can. 0.0898

* * *

conditions: in 1,4-dioxane, 285.65 K
Experimental readout: solubility (mole fraction)
In your answer, state the number alone without any accompanying words.

Dear colleague, please send me the reported solubility (mole fraction) for Cc1cnc(N)s1 when you can. 0.0517

* * *

conditions: in methanol, 288.15 K
Experimental readout: solubility (mole fraction)

Dear colleague, please send me the reported solubility (mole fraction) for Cc1cnc(N)s1 when you can. 0.0796

* * *

conditions: in acetonitrile, 285.65 K
Experimental readout: solubility (mole fraction)

Dear colleague, please send me the reported solubility (mole fraction) for Cc1cnc(N)s1 when you can. 0.0372

* * *

details: in methanol, 303.15 K
Experimental readout: solubility (mole fraction)

Dear colleague, please send me the reported solubility (mole fraction) for Cc1cnc(N)s1 when you can. 0.125

* * *

details: in acetone, 288.15 K
Experimental readout: solubility (mole fraction)
In your answer, state the number alone without any accompanying words.

Dear colleague, please send me the reported solubility (mole fraction) for Cc1cnc(N)s1 when you can. 0.0692

* * *

settings: in 1,4-dioxane, 303.15 K
Experimental readout: solubility (mole fraction)
In your answer, state the number alone without any accompanying words.

Dear colleague, please send me the reported solubility (mole fraction) for Cc1cnc(N)s1 when you can. 0.0961

* * *

conditions: in methanol, 305.65 K
Experimental readout: solubility (mole fraction)
In your answer, state the number alone without any accompanying words.

Dear colleague, please send me the reported solubility (mole fraction) for Cc1cnc(N)s1 when you can. 0.135

* * *

conditions: in ethyl acetate, 298.15 K
Experimental readout: solubility (mole fraction)
In your answer, state the number alone without any accompanying words.

Dear colleague, please send me the reported solubility (mole fraction) for Cc1cnc(N)s1 when you can. 0.101

* * *

conditions: in 2-butanone, 310.65 K
Experimental readout: solubility (mole fraction)
In your answer, state the number alone without any accompanying words.

Dear colleague, please send me the reported solubility (mole fraction) for Cc1cnc(N)s1 when you can. 0.121

* * *

settings: in acetone, 290.65 K
Experimental readout: solubility (mole fraction)
In your answer, state the number alone without any accompanying words.

Dear colleague, please send me the reported solubility (mole fraction) for Cc1cnc(N)s1 when you can. 0.0756

* * *

settings: in 2-butanone, 313.15 K
Experimental readout: solubility (mole fraction)
In your answer, state the number alone without any accompanying words.

Dear colleague, please send me the reported solubility (mole fraction) for Cc1cnc(N)s1 when you can. 0.133

* * *

conditions: in isopropanol, 308.15 K
Experimental readout: solubility (mole fraction)
In your answer, state the number alone without any accompanying words.

Dear colleague, please send me the reported solubility (mole fraction) for Cc1cnc(N)s1 when you can. 0.102

* * *

details: in isopropanol, 288.15 K
Experimental readout: solubility (mole fraction)

Dear colleague, please send me the reported solubility (mole fraction) for Cc1cnc(N)s1 when you can. 0.0497

* * *

conditions: in acetone, 303.15 K
Experimental readout: solubility (mole fraction)

Dear colleague, please send me the reported solubility (mole fraction) for Cc1cnc(N)s1 when you can. 0.116

* * *

conditions: in 1,4-dioxane, 283.15 K
Experimental readout: solubility (mole fraction)

Dear colleague, please send me the reported solubility (mole fraction) for Cc1cnc(N)s1 when you can. 0.0474

* * *

conditions: in toluene, 308.15 K
Experimental readout: solubility (mole fraction)
In your answer, state the number alone without any accompanying words.

Dear colleague, please send me the reported solubility (mole fraction) for Cc1cnc(N)s1 when you can. 0.039

* * *

conditions: in acetonitrile, 280.65 K
Experimental readout: solubility (mole fraction)
In your answer, state the number alone without any accompanying words.

Dear colleague, please send me the reported solubility (mole fraction) for Cc1cnc(N)s1 when you can. 0.031

* * *

settings: in acetone, 298.15 K
Experimental readout: solubility (mole fraction)
In your answer, state the number alone without any accompanying words.

Dear colleague, please send me the reported solubility (mole fraction) for Cc1cnc(N)s1 when you can. 0.0979

* * *

details: in n-propanol, 293.15 K
Experimental readout: solubility (mole fraction)
In your answer, state the number alone without any accompanying words.

Dear colleague, please send me the reported solubility (mole fraction) for Cc1cnc(N)s1 when you can. 0.0628

* * *

settings: in isopropanol, 305.65 K
Experimental readout: solubility (mole fraction)
In your answer, state the number alone without any accompanying words.

Dear colleague, please send me the reported solubility (mole fraction) for Cc1cnc(N)s1 when you can. 0.0927

* * *

settings: in toluene, 313.15 K
Experimental readout: solubility (mole fraction)
In your answer, state the number alone without any accompanying words.

Dear colleague, please send me the reported solubility (mole fraction) for Cc1cnc(N)s1 when you can. 0.0493

* * *

details: in toluene, 303.15 K
Experimental readout: solubility (mole fraction)
In your answer, state the number alone without any accompanying words.

Dear colleague, please send me the reported solubility (mole fraction) for Cc1cnc(N)s1 when you can. 0.0312
